Please respond with reported Ratio of PDL1:CD28 for every item in the list.
experimental target: T1, human PD-L1, full-length, on CHO cells (human, UniProt Q9NZQ7 19-290)
T1 construct: also called huPD-L1; CD274
T1 sequence (Q9NZQ7 19-290): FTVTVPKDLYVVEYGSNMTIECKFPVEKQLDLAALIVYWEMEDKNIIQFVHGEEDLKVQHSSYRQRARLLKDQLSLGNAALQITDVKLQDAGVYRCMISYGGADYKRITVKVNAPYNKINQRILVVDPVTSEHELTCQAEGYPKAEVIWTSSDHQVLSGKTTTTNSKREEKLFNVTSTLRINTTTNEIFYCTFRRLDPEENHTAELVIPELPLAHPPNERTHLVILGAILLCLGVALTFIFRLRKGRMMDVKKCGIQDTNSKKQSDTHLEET
assay overview: flow cytometry; PD-L1 MFI over CD28 MFI

// query Given the entry variant CD80 IgV-Fc E35D/M47L (Fc fusion, not shown: small tags and cut ends; a dimerising Fc or GST) VIHVTKEVKEVATLSCGHNVSVEELAQTRIYWQKDKKMVLTMMSGDLNIWPEYKNRTIFDITNNLSIVILALRPSDEGTYECVVLKYEKDAFKREHLAEVTLSVKAD , report its measured Ratio of PDL1:CD28.
// result 18.3 ratio

// query Given the entry variant CD80 IgV-Fc M47V/K89N (Fc fusion, not shown: small tags and cut ends; a dimerising Fc or GST) VIHVTKEVKEVATLSCGHNVSVEELAQTRIYWQKEKKMVLTMMSGDVNIWPEYKNRTIFDITNNLSIVILALRPSDEGTYECVVLKYENDAFKREHLAEVTLSVKAD , report its measured Ratio of PDL1:CD28.
// result 3.2 ratio

// query Given the entry variant CD80 IgV-Fc E35D (Fc fusion, not shown: small tags and cut ends; a dimerising Fc or GST) VIHVTKEVKEVATLSCGHNVSVEELAQTRIYWQKDKKMVLTMMSGDMNIWPEYKNRTIFDITNNLSIVILALRPSDEGTYECVVLKYEKDAFKREHLAEVTLSVKAD , report its measured Ratio of PDL1:CD28.
// result 19.3 ratio

// query Given the entry variant CD80 IgV-Fc D46V/L85Q (Fc fusion, not shown: small tags and cut ends; a dimerising Fc or GST) VIHVTKEVKEVATLSCGHNVSVEELAQTRIYWQKEKKMVLTMMSGVMNIWPEYKNRTIFDITNNLSIVILALRPSDEGTYECVVQKYEKDAFKREHLAEVTLSVKAD , report its measured Ratio of PDL1:CD28.
// result 16.8 ratio
